Origin of values: patent US20240158368A1

Assay: in vitro
Test parameters: rat, microsomes, pH 7.4
Assay readout: CLint scaled (mL/min/kg)
One number for each entry, in mL/min/kg.

O=C(N[C@@H]1CCN(c2c(C(=O)N3CC(F)(F)C3)cc(Br)cc2C(F)(F)F)C1)c1cc(=O)[nH]c2c(F)cccc12	845
CN1CCN(C(=O)c2cc(C#N)cc(C(F)(F)F)c2N2CC[C@@H](NC(=O)c3cc(=O)[nH]c4c(F)cccc34)C2)CC1	56.7
O=C(N[C@@H]1CCN(c2c(C(=O)N3CC4(COC4)C3)cc(Br)cc2C(F)(F)F)C1)c1cc(=O)[nH]c2c(F)cccc12	327
Cc1cc(C(=O)N2CCOCC2)c(N2C[C@H](NC(=O)c3cc(=O)[nH]c4c(F)c(F)ccc34)C[C@H]2C)c(C2CC2)c1	1430
COCCN1CCN(C(=O)c2cc(Br)cc(C(F)(F)F)c2N2CC[C@@H](NC(=O)c3cc(=O)[nH]c4c(F)cccc34)C2)CC1	1180

Batch request: CLint scaled for each of the following compounds.
1. COc1cccc2[nH]c(=O)cc(C(=O)N[C@@H]3CCN(c4c(C(=O)N5CCOCC5)cc(C)cc4C4CC4)C3)c12
2. CN1CCN(C(=O)c2cc(Br)cc(C(F)(F)F)c2N2CC[C@@H](NC(=O)c3cc(=O)[nH]c4c(F)cccc34)C2)CC1

[A]
1. 227
2. 722

# batch: return CLint scaled for each of the 2 compounds below
1. O=C(N[C@@H]1CCN(c2c(C(=O)N3CCOCC3)cc(F)cc2C2CC2)C1)c1cc(=O)[nH]c2c(F)cccc12
2. O=C(N[C@@H]1CCN(c2c(C(=O)N3CCOCC3)cc(Br)cc2C(F)(F)F)C1)c1cc(C(F)F)[nH]c(=O)c1

[A]
1: 897; 2: 83.3

====

For each of the compounds below, state its pEC50.
System tested: MERS Mpro (Middle East respiratory syndrome-related coronavirus (isolate United Kingdom/H123990006/2012) (MERS-CoV) (Betacoronavirus England 1), UniProt K9N7C7)
Sequence (K9N7C7 3248-3553 limits assumed): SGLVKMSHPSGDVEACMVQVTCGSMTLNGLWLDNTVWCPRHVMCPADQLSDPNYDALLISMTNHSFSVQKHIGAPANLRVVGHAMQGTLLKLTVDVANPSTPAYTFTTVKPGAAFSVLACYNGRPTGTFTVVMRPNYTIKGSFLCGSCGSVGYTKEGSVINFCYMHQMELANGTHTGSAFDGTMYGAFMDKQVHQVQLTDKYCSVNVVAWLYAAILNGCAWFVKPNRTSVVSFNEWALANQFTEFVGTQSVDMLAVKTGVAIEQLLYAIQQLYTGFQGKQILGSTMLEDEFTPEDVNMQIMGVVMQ
Assay: biochemical
Answers are plain numbers, as −log10 of the molar value.

Report pEC50 for each item below.
1. COc1cccc2[nH]c(=O)cc(C(=O)N[C@@H]3CCN(c4c(C(=O)N5CCOCC5)cc(F)cc4C4CC4)C3)c12 [Compound 79]
2. COc1cccc2[nH]c(=O)cc(C(=O)N[C@@H]3CCN(c4c(Cl)cc(C)cc4C(=O)N4CCOCC4)C3)c12 [Compound 85]

[A]
[8.82, 8.81]

Fill in pEC50 for each of the 3 compounds listed.
1. Cc1cc(C(=O)N[C@@H]2CCN(c3c(C(=O)N4CCOCC4)cc(C#N)cc3C(F)F)C2)c(F)c(=O)[nH]1 [Compound 12]
2. N#Cc1cc(C(=O)N2CCNC(=O)C2)c(N2CC[C@@H](NC(=O)c3cc(=O)[nH]c4c(F)cccc34)C2)c(C(F)(F)F)c1 [Compound 27]
3. O=C(N[C@@H]1CCN(c2c(C(=O)N3CCOCC3)cc(Br)cc2C(F)(F)F)C1)c1c(F)c(=O)[nH]c2c(F)c(F)ccc12 [Compound 50]

[A]
1. 8.58
2. 8.87
3. 8.72

====

System: OC43 virus
Assay: microbe, parasite or virus in culture
Format: cell-based
Test parameters: Betacoronavirus 1, OC43, Huh-7, read-out: Antiviral OC43 EC50 (μM)
I'd appreciate it if you marked entries satisfied when EC50 is lower than 0.1 µM and not satisfied when it is not.

O=C(N[C@@H]1CCN(c2c(C(=O)N3CCOCC3)cc(Cl)cc2C(F)(F)F)C1)c1cc(=O)[nH]c2c(F)cccc12 [Compound 36]	satisfied
O=C(N[C@@H]1CCN(c2c(C(=O)N3CCOCC3)cc(F)cc2C2CC2)C1)c1cc(=O)[nH]c2c(F)cccc12 [Compound 46]	satisfied
O=C(N[C@@H]1CCN(c2c(C(=O)N3CCOCC3)cc(Br)cc2C(F)(F)F)C1)c1cc(=O)[nH]c2c(F)cc(F)cc12 [Compound 49]	not satisfied

[Q] Strictly below 0.1 µM in EC50? N#Cc1cc(C(=O)N2CCOCC2)c(N2CC[C@@H](NC(=O)c3cc(=O)[nH]c4c(F)c(F)ccc34)C2)c(C(F)(F)F)c1 [Compound 8]
[A] not satisfied

[Q] Answer whether the compound CN1CCN(C(=O)c2cc(C#N)cc(C(F)(F)F)c2N2CC[C@@H](NC(=O)c3cc(=O)[nH]c4c(F)cccc34)C2)CC1 [Compound 14] has EC50 strictly less than 0.1 µM
[A] not satisfied

[Q] For O=C(N[C@@H]1CCN(c2c(C(=O)N3CCOCC3)cc(Br)cc2C(F)(F)F)C1)c1c(F)c(=O)[nH]c2c(F)c(F)ccc12 [Compound 50] , is the recorded EC50 below the cut-off of 0.1 µM?
[A] not satisfied

[Q] Problem: For the compound O=C(N[C@@H]1CCN(c2c(C(=O)N3CCOCC3)cc(Br)cc2C(F)(F)F)C1)c1cc(C(F)F)[nH]c(=O)c1 [Compound 61] , is EC50 under 0.1 µM?
[A] not satisfied

[Q] Would you kindly verify if EC50 of COc1cccc2[nH]c(=O)cc(C(=O)N[C@@H]3CCN(c4c(Cl)cc(C)cc4C(=O)N4CCOCC4)C3)c12 [Compound 85] is strictly less than 0.1 µM?
[A] not satisfied

[Q] Please determine if COc1cccc2[nH]c(=O)cc(C(=O)N[C@H]3CN(c4c(C(=O)N5CCOCC5)cc(C)cc4C4CC4)C[C@@H]3OC)c12 [Compound 84] is below 0.1 µM in terms of EC50.
[A] satisfied

[Q] Is EC50 of COc1cc(F)cc2[nH]c(=O)cc(C(=O)N[C@@H]3CCN(c4c(C(=O)N5CCOCC5)cc(Br)cc4C(F)(F)F)C3)c12 [Compound 57] strictly below 0.1 µM?
[A] satisfied

[Q] Take the compound O=C(N[C@@H]1CCN(c2c(C(=O)N3CCOCC3)cc(Br)cc2C(F)(F)F)C1)c1cc(=O)[nH]c2c(Cl)cccc12 [Compound 58] and say whether its EC50 is less than 0.1 µM.
[A] not satisfied
